These measurements were taken from PubChem BioAssay AID588549.

# System: Mycobacterium tuberculosis FadD28 fatty-acid-AMP ligase
# assayOverview: inhibitors of FadD28 bisubstrate probe binding, primary screen, biochemical, fluorescence polarization, single point (AID 588549)
# appliedConditions: at 12.5 µM, stronger effect = higher value
The campaign covered roughly 360,000 compounds. About 780 (0.22%) were called active. The entries come from a sample that favours actives as a whole.
Exercise: state measured inhibition for each of the compounds provided.
Answers are plain numbers, in %.

Solved cases below.
Q) Give reported inhibition value for CC(C)CNC(=O)C(=O)NCC(c1ccc2c(c1)OCO2)N1CCOCC1 (configuration not stated)
A) -1.64

Q) Give reported inhibition value for COc1ccccc1CCCNC(=O)C1CCC(=O)N(CCN2CCOCC2)C1 (configuration not stated)
A) -0.246

Q) Give reported inhibition value for `COC(=O)c1ccc(CNC(=O)c2ccc(S(=O)(=O)N3CCCCCC3)cc2)cc1`
A) 1.15

Q) Give reported inhibition value for `COc1ccc(Br)cc1/C=N/Nc1ccc(S(=O)(=O)Nc2ccccc2C(=O)O)cc1[N+](=O)[O-]`
A) -1.21

Q) Give reported inhibition value for `C=CCSc1ccc(S(=O)(=O)N2CCN(C)CC2)cn1`
A) -0.339

Here are 2 compounds. What values of inhibition were reported for them?
1. NNC(=O)COc1ccc(C2SCCS2)cc1
2. COc1cc(C(O)c2nc(-c3cnn(C)c3)cs2)ccc1F (configuration not stated)

A)
[-1.11, -2.58]

---

# Tested on: Mycobacterium tuberculosis FadD28 fatty-acid-AMP ligase
# assayOverview: inhibitors of FadD28 bisubstrate probe binding, primary screen, biochemical, fluorescence polarization, single point (AID 588549)
# appliedConditions: at 12.5 µM, stronger effect = higher value
The whole screen tested about 360,000 compounds, of which about 780 (0.22%) were called active. Only a selection was taken, and actives are over-represented in it overall.
Exercise: state measured inhibition for each of the molecules provided.
Give bare numbers, in %.

Solved cases below.
Q) Give reported inhibition value for Cc1cc(-c2ccc(C)c(S(=O)(=O)NC(C)Cc3ccco3)c2)on1 (stereo not drawn)
A) -1.87

Q) Give reported inhibition value for Cc1ccc(C(c2sc3nc(C)nn3c2O)N2CCN(c3ccc(F)cc3)CC2)cc1 (stereo not drawn)
A) -3.79

Q) Give reported inhibition value for `N[C@@H](Cc1ccccc1)C(=O)N1CCC(C(=O)NCC(=O)Nc2ccc(F)cc2)CC1`
A) 0.565

Q) Give reported inhibition value for `Cc1nc(NC(=O)CN(C)S(=O)(=O)c2ccc(Cl)cc2)sc1C`
A) 0.291

Here are 3 molecules. What values of inhibition were reported for them?
1. CC1CC(C)CN(C(=O)COC(=O)c2ccc3ncsc3c2)C1 (stereo not drawn)
2. COc1cc(O)c2c(=O)c3c(O)c(O)ccc3oc2c1OC
3. Cn1c(=O)cc(SCC(=O)N2CCCC2)c2cc(Cl)ccc21

A)
-1.75
-0.783
-4.85

---

Exercise: state measured inhibition for each of the compounds provided.
# Test system: Mycobacterium tuberculosis FadD28 fatty-acid-AMP ligase
# assayOverview: inhibitors of FadD28 bisubstrate probe binding, primary screen, biochemical, fluorescence polarization, single point (AID 588549)
# appliedConditions: at 12.5 µM, stronger effect = higher value
Screen size: about 360,000 compounds; about 780 (0.22%) were called active. What follows is part of a selection rich in actives, with near analogues and random picks from the rest.
Numbers only, in %.

Q) Give reported inhibition value for `COc1cc(/C=C2/C(=O)NN(c3cccc(Cl)c3)C2=O)cc(Br)c1O`
A) 14.2

Q) Give reported inhibition value for `CC1(C)CC(=O)C=C(NCc2ccncc2)C1`
A) 1.4

Q) Give reported inhibition value for C[C@H]([C@@H](O)[C@@H](O)[C@@H](C)C(C)(C)C)[C@H]1CC[C@H]2C3CC[C@H]4C[C@H](OS(=O)(=O)O)[C@@H](OS(=O)(=O)O)C[C@]4(C)[C@H]3CC[C@]12C (stereo partly specified)
A) -4.53

Here are 2 compounds. What values of inhibition were reported for them?
1. Cc1ccc(S(=O)(=O)N(C)C)cc1NC(=O)COC(=O)c1c(C)noc1C
2. CCN1CC(CN(C)Cc2nc(-c3ccc(Cl)cc3)no2)CC1=O (stereo unspecified)

A)
1. -3.04
2. -0.366

Here are 2 compounds. What values of inhibition were reported for them?
1. OCc1ccc(-c2ccccc2)c(-c2ccccc2)c1
2. O=C1c2ccccc2C(=O)N1c1ccccc1S(=O)C(F)(F)F (stereo unspecified)

A)
1. -0.325
2. -3.78

Here are 4 compounds. What values of inhibition were reported for them?
1. COc1cc2c(C(=O)O)c(C)n(C)c2c2ccccc12
2. COc1ccc(OC)c(S(=O)(=O)N(C)CC(=O)N2CCN(c3ccccc3)CC2)c1
3. COc1cccc2c(O)cc(=O)n(C)c12
4. CC1CCN(C(=O)c2cc3nc(C4CC4)cc(C(F)(F)F)n3n2)CC1

A)
[2.25, -3.85, -3.24, -2.25]

---

# Tested on: Mycobacterium tuberculosis FadD28 fatty-acid-AMP ligase
# assayOverview: inhibitors of FadD28 bisubstrate probe binding, primary screen, biochemical, fluorescence polarization, single point (AID 588549)
# appliedConditions: at 12.5 µM
Among all 360,000 compounds or so, about 780 (0.22%) were called active. Rule as the data show it: active = inhibition above about 8.5% (passing the limit was not always enough); inconclusive = no clear call, values can overlap the other calls. Only a selection was taken, and actives are over-represented in it overall.
Tick one outcome: active, inactive

Q) GET /call?item= CCN(CC)C(=O)C1=C(C)N(Cc2ccc(F)cc2)C(=O)C(CC(=O)NC2CCCC2)C1 (centres undefined) returns the recorded outcome of this test.
A) inactive

Q) GET /call?item= `Cc1ccc(N2CCN(S(=O)(=O)c3ccc(F)cc3)CC2)c(C)c1` returns the recorded outcome of this test.
A) inactive

Q) GET /call?item= `Cc1cc(OCCCC(=O)Nc2cc(S(=O)(=O)N3CCOCC3)ccc2N2CCOCC2)ccc1Cl` returns the recorded outcome of this test.
A) inactive

Q) GET /call?item= COC(=O)C1(C)CC1(c1ccccc1)c1ccccc1 (centres undefined) returns the recorded outcome of this test.
A) inactive

Q) GET /call?item= `O=[N+]([O-])c1cc(Cl)cc(/C=N/NC(=S)Nc2cc(S(=O)(=O)N3CCOCC3)ccc2Cl)c1O` returns the recorded outcome of this test.
A) active

Q) GET /call?item= `COC(=O)c1cc(Oc2ccc(S(=O)(=O)N3CCOCC3)cc2[N+](=O)[O-])cc(C(=O)OC)c1` returns the recorded outcome of this test.
A) inactive

Q) GET /call?item= `CC[C@]1(C(=O)OC)[C@H]2C(=O)N(Cc3ccccc3)C(=O)[C@H]2[C@H]2CN=C(SCc3ccc(C#N)cc3)N21` returns the recorded outcome of this test.
A) inactive

Q) GET /call?item= `O=C1Nc2cc(Cl)c(Cl)cc2N(O)N1c1cc(Cl)cc(Cl)c1` returns the recorded outcome of this test.
A) inactive

Now for another entry.
Q) GET /call?item= `Oc1c(Cl)cc(Cl)c(Cl)c1Cc1c(O)c(Cl)cc(Cl)c1Cl` returns the recorded outcome of this test.
A) active

---

# Test system: Mycobacterium tuberculosis FadD28 fatty-acid-AMP ligase
# assayOverview: inhibitors of FadD28 bisubstrate probe binding, primary screen, biochemical, fluorescence polarization, single point (AID 588549)
# appliedConditions: at 12.5 µM, stronger effect = higher value
Screen size: about 360,000 compounds; about 780 (0.22%) were called active. The sample holds actives, similar compounds and a random draw of the others, so the mix is not that of the screen.
experimentalEndpoint: inhibition (%)
Answers are plain numbers, in %.

Solved cases below.
Q) Give reported inhibition value for `CC1CCN(c2ccc(C(=O)Nc3nnc(C4CC4)s3)cc2[N+](=O)[O-])CC1`
A) -1.32

Q) Give reported inhibition value for `Cc1c(C(=O)CN2CCOCC2)[nH]c2ccccc12`
A) -2.15

Q) Give reported inhibition value for `CCCS(=O)(=O)Nc1c(C(=O)O)[nH]c2ccccc12`
A) 1.47

Q) Give reported inhibition value for COc1cccc2c1C(=O)c1c(O)c3c(c(O)c1C2=O)CC(O)(C(C)=NNC(=O)c1ccc(Cl)c(Cl)c1)CC3OC1CC(N)C(O)C(C)O1 (stereo not given)
A) 59.5

Q) Give reported inhibition value for CO[C@@H]1[C@@H](OC(N)=O)[C@@H](O)C(Oc2ccc3c(O)c(NC(=O)c4ccc(O)c(CC=C(C)C)c4)c(=O)oc3c2C)OC1(C)C (stereo not given in full)
A) -2.46

Here are 5 compounds. What values of inhibition were reported for them?
1. O=C(O)c1ccc(N/N=C/c2cn(-c3ccccc3)nc2-c2cccs2)cc1
2. Cc1ccc(N2CCN(S(=O)(=O)N(C)C)CC2)cc1Cl
3. O=C(O)c1[nH]c2ccccc2c1C(c1cccc(O)c1)c1c(C(=O)O)[nH]c2ccccc12
4. COCCN(CCOC)c1nc(N)c2c(N)nc3c(c2c1C#N)CC(=O)N3Cc1ccc(Cl)cc1
5. COCCNC(=O)CN(Cc1ccco1)C(=O)CCC(=O)Nc1nccs1

A)
1. 23.7
2. 0.0335
3. 28.9
4. 39.6
5. -3.92
